# assayRemarks: Electrical activity assay on cell lines treated with a given drug. DMSO was used as a vehicle and a control, unblinded dofetilide was used as a control.
# Format: ADME, cell-based
# Design: unit not given here
# measurementContext: human, ipsc-cm, 0.1 µM; concentration (um) 0.1 uM

>  <compound>
CN1CCN(CCCCN2C(=O)CN(/N=C/c3ccc(-c4ccc(Cl)cc4)o3)C2=O)CC1 [AZIMILIDE]

>  <FPDc>
0.04044

$$$$
>  <compound>
COc1cc(N)c(Cl)cc1C(=O)NC1CCN(CCCOc2ccc(F)cc2)CC1OC (stereo not given) [CISAPRIDE]

>  <FPDc>
0.04762

$$$$
>  <compound>
CC(C)COCC(CN(Cc1ccccc1)c1ccccc1)N1CCCC1 (stereo not given) [BEPRIDIL]

>  <FPDc>
0.0376

$$$$
